- ASSAYED_TARGET: D-2 (dopamine-2) receptors (Rattus norvegicus)
- Construct: The D2 assay employed a P2 fraction from the striatum, the ligand ^3H-spiperone at a concentration of 0.05 nM; from tissue; host or cells: rat striatum, P2 fraction (synaptosomal membranes), male Wistar rats
- TEST_SUMMARY: biochemical
- Type: binding, male, Wistar rats
- CONDITION_NOTES: rat striatum P2 fraction, 3H-spiperone 0.05 nM; read-out: Receptor Binding (Ki nM) D2
Label y when Ki is strictly below 20 nM; otherwise label n.

{"columns": ["MOLECULE", "ANSWER_LABEL"],
 "data": [
  ["CC(C)Oc1ccccc1N1CCN(Cc2ccccc2C(=O)N(C)C2CCCC2)CC1", "y"],
  ["CC(C)Oc1ccccc1N1CCN(Cc2cccc(C(=O)N(C)CCc3ccccc3)c2)CC1", "y"],
  ["CC(C)Oc1ccccc1N1CCN(Cc2ccc(N)c(C(=O)N3CCCCC3)c2)CC1", "y"],
  ["CC1CN(Cc2cccc(C(=O)N3CCCCC3)c2)CCN1c1ccccc1 (stereo not drawn)", "n"],
  ["O=C(c1cccc(CN2CCN(c3ccccc3Cl)CC2)c1)N1CCCCCC1", "y"],
  ["CC(C)Oc1ccccc1N1CCN(Cc2cccc(S(=O)(=O)N3CCCC3)c2)CC1", "n"]
]}

###

- System: Male, Fischer 344 rats
- TEST_SUMMARY: Block of Conditioned Avoidance Responding (Rat) test (CAR)
- CONDITION_NOTES: at CAR 5 mg/kg IP
ENDPOINT_NAME: (Escape Loss) % failures to escape

{"columns": ["COMPOUND", "ENDPOINT_NAME", "REPORTED_VALUE"],
 "data": [
  ["CC(C)Oc1cc(F)ccc1N1CCN(Cc2cccc(C(=O)N3CCOCC3)c2)CC1 [Compound 80]", "(Escape Loss) % failures to escape", "14%"],
  ["CC(C)Oc1cc(F)ccc1N1CCN(Cc2cccc(C(=O)N3CCCCCC3)c2)CC1 [Compound 79]", "(Escape Loss) % failures to escape", "44%"],
  ["CC(C)Oc1ccccc1C1CCN(Cc2cccc(C(=O)N3CCCCC3)c2)CC1.Cl [Compound 38]", "(Escape Loss) % failures to escape", "5%"],
  ["CC(C)Oc1ccccc1N1CCN(Cc2cccc(S(=O)(=O)N3CCCC(C)(C)C3)c2)CC1 [Compound 104]", "(Escape Loss) % failures to escape", "2%"],
  ["CC(C)Oc1ccccc1C1CCN(Cc2cccc(C(=O)N3CCOCC3)c2)CC1 [Compound 41]", "(Escape Loss) % failures to escape", "70%"],
  ["CC(C)Oc1ccccc1N1CCN(Cc2cccc(C(=O)N3CCN(c4ccccc4)CC3)c2)CC1 [Compound 62]", "(Escape Loss) % failures to escape", "23%"],
  ["O=C(c1cccc(CN2CCN(c3cc(Cl)cc(Cl)c3)CC2)c1)N1CCCCC1 [Compound 94]", "(Escape Loss) % failures to escape", "3%"],
  ["O=C(c1cccc(CN2CCN(c3cccc(Cl)c3)CC2)c1)N1CCCCC1 [Compound 91]", "(Escape Loss) % failures to escape", "21%"]
]}

###

- ASSAYED_TARGET: D-2 (dopamine-2) receptors (Rattus norvegicus, UniProt P61169)
- Construct: The D2 assay employed a P2 fraction from the striatum, the ligand ^3H-spiperone at a concentration of 0.05 nM; from tissue; host or cells: rat striatum, P2 fraction (synaptosomal membranes), male Wistar rats
- Sequence (P61169 whole entry): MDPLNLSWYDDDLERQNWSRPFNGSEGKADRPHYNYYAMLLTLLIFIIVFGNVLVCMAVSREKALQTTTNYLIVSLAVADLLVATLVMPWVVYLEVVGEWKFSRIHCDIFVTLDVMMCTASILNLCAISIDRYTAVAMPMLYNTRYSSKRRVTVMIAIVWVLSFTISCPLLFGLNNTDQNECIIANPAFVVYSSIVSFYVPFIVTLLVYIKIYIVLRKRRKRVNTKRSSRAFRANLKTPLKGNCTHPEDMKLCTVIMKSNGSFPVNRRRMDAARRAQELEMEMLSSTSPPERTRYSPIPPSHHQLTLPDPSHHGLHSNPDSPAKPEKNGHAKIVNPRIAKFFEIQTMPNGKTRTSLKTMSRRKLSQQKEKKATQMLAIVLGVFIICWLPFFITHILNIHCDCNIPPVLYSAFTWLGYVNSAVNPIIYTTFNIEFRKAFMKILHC
- TEST_SUMMARY: biochemical
- Type: binding, male, Wistar rats
- CONDITION_NOTES: rat striatum P2 fraction, 3H-spiperone 0.05 nM; read-out: Receptor Binding (Ki nM) D2
Where a name gives a salt, the structure may show the parent alone.
In this section we review reported Ki values for a set of compounds.

{"columns": ["COMPOUND", "ASSAYED_TARGET", "CENSORING_SIGN", "Ki, nM"],
 "data": [
  ["O=C(c1cccc(CN2CCN(c3ccc4c(c3)OCO4)CC2)c1)N1CCCCC1", "D-2 (dopamine-2) receptors (Rattus norvegicus, UniProt P61169)", ">", 1000],
  ["COc1ccc(CN2CCN(c3ccccc3OC(C)C)CC2)cc1C(=O)N1CCCCC1", "D-2 (dopamine-2) receptors (Rattus norvegicus, UniProt P61169)", "=", 32],
  ["CCCc1ccccc1N1CCN(Cc2cccc(C(=O)N3CCCCCC3)c2)CC1", "D-2 (dopamine-2) receptors (Rattus norvegicus, UniProt P61169)", "=", 41],
  ["CCN1CCCC1CNC(=O)c1cccc(CN2CCN(c3ccccc3OC(C)C)CC2)c1 (centres unmarked)", "D-2 (dopamine-2) receptors (Rattus norvegicus, UniProt P61169)", "=", 13.9],
  ["CC(C)Oc1ccccc1N1CCN(Cc2cccc(C(=O)N3CCN(c4ccccc4OC(C)C)CC3)c2)CC1", "D-2 (dopamine-2) receptors (Rattus norvegicus, UniProt P61169)", "=", 171],
  ["CC(C)Oc1ccccc1N1CCN(Cc2cccc(C(=O)N3C(C)CCC3C)c2)CC1 (centres unmarked)", "D-2 (dopamine-2) receptors (Rattus norvegicus, UniProt P61169)", "=", 4.7],
  ["O=C(c1cccc(CN2CCN(c3cc(Cl)cc(Cl)c3)CC2)c1)N1CCCCC1", "D-2 (dopamine-2) receptors (Rattus norvegicus, UniProt P61169)", "=", 21],
  ["CC(C)Oc1cc(F)ccc1N1CCN(Cc2cccc(C(=O)N3CCCCCC3)c2)CC1", "D-2 (dopamine-2) receptors (Rattus norvegicus, UniProt P61169)", "=", 12],
  ["COc1ccccc1N1CCN(Cc2cccc(C(=O)N3CCCCCCC3=O)c2)CC1", "D-2 (dopamine-2) receptors (Rattus norvegicus, UniProt P61169)", "=", 121],
  ["CC(C)Oc1ccccc1N1CCN(Cc2cccc(C(=O)N3CCC[C@H]3C(=O)OCc3ccccc3)c2)CC1", "D-2 (dopamine-2) receptors (Rattus norvegicus, UniProt P61169)", "=", 10],
  ["CC(C)Oc1ccccc1C1CCN(Cc2cccc(C(=O)N3CCCCC3)c2)CC1.Cl [Compound 38, hydrochloride]", "D-2 (dopamine-2) receptors (Rattus norvegicus, UniProt P61169)", "=", 2.8],
  ["O=C(c1cccc(CN2CCN(c3ccccc3C(F)(F)F)CC2)c1)N1CCCCC1", "D-2 (dopamine-2) receptors (Rattus norvegicus, UniProt P61169)", "=", 281],
  ["COc1ccc(CN2CCN(c3ncccn3)CC2)cc1C(=O)N1[C@H](C)CCC[C@@H]1C", "D-2 (dopamine-2) receptors (Rattus norvegicus, UniProt P61169)", "=", 808],
  ["O=C(c1cccc(CN2CCN(c3ncccn3)CC2)c1)N1CCC[C@H]1CO", "D-2 (dopamine-2) receptors (Rattus norvegicus, UniProt P61169)", ">", 1000],
  ["CCCCN(C)C(=O)c1cccc(CN2CCN(c3ccccc3OC(C)C)CC2)c1", "D-2 (dopamine-2) receptors (Rattus norvegicus, UniProt P61169)", "=", 15],
  ["CC(C)Oc1ccccc1C1CCN(Cc2cccc(C(=O)N3CCOCC3)c2)CC1", "D-2 (dopamine-2) receptors (Rattus norvegicus, UniProt P61169)", "=", 9.6],
  ["COc1ccc(OC)c(N2CCN(Cc3cccc(C(=O)N4CCCCC4)c3)CC2)c1", "D-2 (dopamine-2) receptors (Rattus norvegicus, UniProt P61169)", "=", 592],
  ["CC(C)Oc1ccccc1N1CCN(Cc2cccc(C(=O)NCCCCCCNC(=O)OC(C)(C)C)c2)CC1", "D-2 (dopamine-2) receptors (Rattus norvegicus, UniProt P61169)", "=", 88],
  ["CC(C)Oc1ccccc1N1CCN(CCCC(=O)c2ccc(C(=O)N3CCCCC3)cc2)CC1 [Compound 100, fumarate]", "D-2 (dopamine-2) receptors (Rattus norvegicus, UniProt P61169)", "=", 11],
  ["COc1ccccc1N1CCN(Cc2cccc(C(=O)N3CCCCC3)c2)CC1", "D-2 (dopamine-2) receptors (Rattus norvegicus, UniProt P61169)", "=", 29],
  ["CC(C)Oc1ccccc1N1CCN(Cc2cccc(C(=O)N3CCCC(C)(C)C3)c2)CC1", "D-2 (dopamine-2) receptors (Rattus norvegicus, UniProt P61169)", "=", 4.8],
  ["CC(=O)Nc1ccc(CN2CCN(c3ccccc3OC(C)C)CC2)cc1C(=O)N1CCCCC1", "D-2 (dopamine-2) receptors (Rattus norvegicus, UniProt P61169)", "=", 29],
  ["CCOC(=O)C1CCCCN1C(=O)c1cccc(CN2CCN(c3ccccc3OC(C)C)CC2)c1 (centres unmarked)", "D-2 (dopamine-2) receptors (Rattus norvegicus, UniProt P61169)", "=", 4.1],
  ["O=C(c1cccc(CN2CCN(c3ncccn3)CC2)c1)N1CCCCC1", "D-2 (dopamine-2) receptors (Rattus norvegicus, UniProt P61169)", ">", 1000],
  ["CC(C)Oc1ccccc1N1CCN(CCCC(O)c2ccc(C(=O)N3CCCCC3)cc2)CC1 (centres unmarked) [Compound 101, bisoxalate]", "D-2 (dopamine-2) receptors (Rattus norvegicus, UniProt P61169)", "=", 13],
  ["COc1cc2c(cc1OC)CN(C(=O)c1cccc(CN3CCN(c4ccccc4OC(C)C)CC3)c1)CC2", "D-2 (dopamine-2) receptors (Rattus norvegicus, UniProt P61169)", "=", 11],
  ["CC(C)Oc1ccccc1N1CCN(CCCCc2ccc(C(=O)N3CCCCC3)cc2)CC1 [Compound 102, dihydrobromide]", "D-2 (dopamine-2) receptors (Rattus norvegicus, UniProt P61169)", "=", 7.2],
  ["CC(C)Oc1ccccc1N1CCN(Cc2cccc(C(=O)N3[C@H](C)CCC[C@@H]3C)c2)CC1", "D-2 (dopamine-2) receptors (Rattus norvegicus, UniProt P61169)", "=", 7.2],
  ["COc1ccc(CN2CCC(c3ccccc3OC(C)C)CC2)cc1C(=O)N1[C@H](C)CCC[C@@H]1C", "D-2 (dopamine-2) receptors (Rattus norvegicus, UniProt P61169)", "=", 43],
  ["CC(C)Oc1ccccc1N1CCN(Cc2cccc(C(=O)N3CCC4CCCCC4C3)c2)CC1 (centres unmarked)", "D-2 (dopamine-2) receptors (Rattus norvegicus, UniProt P61169)", "=", 11.4]
]}
